ΔG values, listed per item
Target: T1, EphA2 ligand binding domain (EphA2 LBD), residues 28-200 (UniProt P29317 28-200)
T1 construct: range 28-200; Expressed in E. coli; also called soluble EphA2 LBD; soluble monomeric EphA2 LBD
T1 sequence (P29317 other isoform, or with tags, fused parts or gaps limits assumed, form in doubt): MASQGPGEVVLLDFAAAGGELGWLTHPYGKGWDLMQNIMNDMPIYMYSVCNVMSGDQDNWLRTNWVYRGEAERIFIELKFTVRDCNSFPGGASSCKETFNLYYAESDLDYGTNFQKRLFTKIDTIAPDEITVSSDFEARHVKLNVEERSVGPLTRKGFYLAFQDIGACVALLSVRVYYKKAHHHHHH
Experiment: ITC, soluble EphA2 LBD and peptide
Where no end group is shown, it is not given here. [ ]: non-standard residue; d: D form. βAla = NCCC(=O)O
measured_metric: ΔG (kcal/mol)

# binder, measured_metric, quantitative_result
records = [
    ("[βAla]WLAYPDSVPYGSGC (also: homodimer, disulfide at 15, other end not in the chain, C-terminally disulfide-linked homodimer made from monomer (9*); also called dimer (1); dimeric peptide (1)) [βA-WLA-YGSGC dimer (C-ter)]", "ΔG", -7.55),
    ("CGAWLAYPDSVPYRPK (also: N-terminally disulfide-linked homodimer, disulfide at 1, other end not in the chain, also called dimer (5); dimeric peptide (5)) [CGA-WLA-YRPK dimer (N-ter)]", "ΔG", -10.4),
    ("[βAla]WLAYPDSVPYRPKC (also: homodimer, disulfide at 15, other end not in the chain, C-terminally disulfide-linked homodimer made from monomer (19*); also called dimer (2); dimeric peptide (2)) [βA-WLA-YRPKC dimer (C-ter)]", "ΔG", -8.71),
    ("CGAWLAYPDSVPYR (also: homodimer: N-terminal Cys of two chains joined by disulfide, N-terminally disulfide-linked homodimer made from monomer (15*); also called dimer (4)) [CGA-WLA-YR dimer (N-ter)]", "ΔG", -9.47),
]
